B1: Calcium-binding protein 2, residues 155 to 219; numbered along this chain, Q9NPB3 (parent)
chain: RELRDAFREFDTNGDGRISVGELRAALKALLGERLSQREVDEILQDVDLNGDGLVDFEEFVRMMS

- Variants of: B1
- assay text: abundance fitness (aPCA) (normalised: wild type 0, dead -1); higher = more abundant; growth selection in yeast, the domain comes from the species named
- experimental conditions: Homo sapiens
readout type: abundance fitness

Answered cases to consult:
variant identifier: R38D
recorded value: 0.1
//
variant identifier: L27P
recorded value: -0.495
//
variant identifier: Q37P
recorded value: 0.266
//
variant identifier: G16W
recorded value: -0.454
//
variant identifier: E33S
recorded value: -0.045

Could you share which abundance fitness value was measured for V55A ? -0.189

Could you share which abundance fitness value was measured for R38F ? -0.104

Ref: the Human Domainome abundance scans (Beltran et al. 2025)
